# tested.target: α-glucosidase II (Rattus norvegicus, UniProt A0A8I6GFL3)
# Construct: Purified α-glucosidase I and II were purified from rat liver by known methods; from tissue; host or cells: rat liver
# Sequence (A0A8I6ADW9 1-525 partner): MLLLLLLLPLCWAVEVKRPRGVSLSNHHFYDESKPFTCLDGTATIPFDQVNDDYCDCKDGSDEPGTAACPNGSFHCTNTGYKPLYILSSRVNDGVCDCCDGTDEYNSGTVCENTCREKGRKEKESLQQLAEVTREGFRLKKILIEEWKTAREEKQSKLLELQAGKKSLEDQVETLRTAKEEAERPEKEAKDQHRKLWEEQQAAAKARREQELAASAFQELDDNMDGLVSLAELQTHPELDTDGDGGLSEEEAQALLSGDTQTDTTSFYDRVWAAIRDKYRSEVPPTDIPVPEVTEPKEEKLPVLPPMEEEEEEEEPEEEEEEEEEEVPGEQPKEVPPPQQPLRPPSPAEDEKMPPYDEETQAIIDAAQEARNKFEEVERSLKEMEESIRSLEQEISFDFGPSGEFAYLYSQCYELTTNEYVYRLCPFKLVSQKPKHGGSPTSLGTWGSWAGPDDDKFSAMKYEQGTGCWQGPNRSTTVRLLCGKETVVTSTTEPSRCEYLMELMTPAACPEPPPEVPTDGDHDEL
# protocol.summary: In vitro inhibition of purified α-glucosidase II, (a) and (b) activities, 2-AA-labeled FOS substrates, HPLC
# Format: biochemical
# assay.setup: pentamannose substrate Glc2Man5GlcNAc1; read-out: α-Glucosidase II (a) Glc2Man5GlcNAc1 IC50
pIC50: −log10 of the molar value.
// values below are reported pIC50
test.readout: pIC50

O=[N+]([O-])c1ccc(NCCCCCCN2C[C@H](O)[C@@H](O)[C@H](O)[C@H]2CO)c([N+](=O)[O-])c1: 5.16
CCCCN1C[C@H](O)[C@@H](O)[C@H](O)[C@H]1CO [NB-DNJ, N-butyl-DNJ, reference compound]: 4.97
[N-]=[N+]=Nc1ccc(NCCCCCCN2C[C@H](O)[C@@H](O)[C@H](O)[C@H]2CO)c([N+](=O)[O-])c1: 6.52

* * *

# tested.target: α-glucosidase II (Rattus norvegicus, UniProt A0A8I6GFL3)
# Construct: Purified α-glucosidase I and II were purified from rat liver by known methods; from tissue; host or cells: rat liver
# protocol.summary: In vitro inhibition of purified α-glucosidase II, (a) and (b) activities, 2-AA-labeled FOS substrates, HPLC
# Assay type: biochemical
# assay.setup: heptamannose substrate Glc2Man7GlcNAc1; read-out: α-Glucosidase II (a) Glc2Man7GlcNAc1 IC50
# Experimental: All chromatography was performed at 30° C. The first solvent, solvent A, was acetonitrile and the second solvent, solvent B, was Milli-Q water. […] Samples (<50 μl) were injected in Milli-Q water/acetonitrile (3/7, v/v). […] Glucose units were determined, following comparison with a 2-AA-labeled glucose oligomer ladder (derived from a partial hydrolysate of dextran) external standard using Peak Time software (developed in-house). […]
test.readout: IC50

O=[N+]([O-])c1ccc(NCCCCCCN2C[C@H](O)[C@@H](O)[C@H](O)[C@H]2CO)c([N+](=O)[O-])c1: 18.1 µM
[N-]=[N+]=Nc1ccc(NCCCCCCN2C[C@H](O)[C@@H](O)[C@H](O)[C@H]2CO)c([N+](=O)[O-])c1: 11.7 µM

* * *

# tested.target: α-glucosidase I (Rattus norvegicus)
# Construct: Purified α-glucosidase I and II were purified from rat liver by known methods; from tissue; host or cells: rat liver
# protocol.summary: In vitro inhibition of purified α-glucosidase I, 2-AA-labeled FOS substrates, HPLC
# Assay type: biochemical
# assay.setup: heptamannose substrate Glc3Man7GlcNAc1; read-out: α-Glucosidase I Glc3Man7GlcNAc1 IC50
test.readout: IC50 (µM)

O=[N+]([O-])c1ccc(NCCCCCCN2C[C@H](O)[C@@H](O)[C@H](O)[C@H]2CO)c([N+](=O)[O-])c1 [NDP-DNJ]: 0.045

* * *

# tested.target: α-glucosidase I (Rattus norvegicus, UniProt O88941)
# Construct: Purified α-glucosidase I and II were purified from rat liver by known methods; from tissue; host or cells: rat liver
# Sequence (O88941 whole entry): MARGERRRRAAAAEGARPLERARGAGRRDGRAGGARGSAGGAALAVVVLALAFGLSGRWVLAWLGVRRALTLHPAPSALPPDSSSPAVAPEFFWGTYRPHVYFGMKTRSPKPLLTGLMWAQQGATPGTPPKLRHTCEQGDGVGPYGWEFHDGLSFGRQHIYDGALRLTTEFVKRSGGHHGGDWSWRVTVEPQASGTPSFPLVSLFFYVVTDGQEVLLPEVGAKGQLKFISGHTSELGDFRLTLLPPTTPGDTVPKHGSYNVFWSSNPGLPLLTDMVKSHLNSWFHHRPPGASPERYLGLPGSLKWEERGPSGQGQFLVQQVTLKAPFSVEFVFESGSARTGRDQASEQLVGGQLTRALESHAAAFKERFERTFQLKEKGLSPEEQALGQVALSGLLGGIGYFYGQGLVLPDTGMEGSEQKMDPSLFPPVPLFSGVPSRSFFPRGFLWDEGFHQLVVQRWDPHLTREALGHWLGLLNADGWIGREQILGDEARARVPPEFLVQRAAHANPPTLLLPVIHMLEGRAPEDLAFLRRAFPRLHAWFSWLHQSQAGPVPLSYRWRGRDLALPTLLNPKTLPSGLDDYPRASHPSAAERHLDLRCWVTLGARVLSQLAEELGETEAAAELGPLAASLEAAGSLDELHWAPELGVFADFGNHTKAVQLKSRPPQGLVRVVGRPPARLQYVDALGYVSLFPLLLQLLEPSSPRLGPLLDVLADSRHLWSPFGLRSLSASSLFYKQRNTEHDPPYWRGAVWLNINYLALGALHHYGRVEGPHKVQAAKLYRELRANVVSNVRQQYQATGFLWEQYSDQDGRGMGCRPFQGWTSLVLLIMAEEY
# protocol.summary: In vitro inhibition of purified α-glucosidase I, 2-AA-labeled FOS substrates, HPLC
# Assay type: biochemical
# assay.setup: α-Glucosidase I Glc3Man5GlcNAc1 IC50, pentamannose substrate Glc3Man5GlcNAc1
test.readout: IC50 (µM)

[N-]=[N+]=Nc1ccc(NCCCCCCN2C[C@H](O)[C@@H](O)[C@H](O)[C@H]2CO)c([N+](=O)[O-])c1: 0.017
